- cond: pH 10.0
logD values for the compounds below.
Output spec: single numeric token, no unit.

# annotated cases, reported logD shown
compoundStructureString	logD
CCc1ccc([C@@H]2C(C(=O)OC(C)C)=C(C)N=C3SCCC(=O)N32)cc1	4.75
CCOC(=O)C1=NN[C@@]2(c3cccc([N+](=O)[O-])c3)C(=O)N(c3cccc(C(F)(F)F)c3)C(=O)[C@H]12	4.73
CC/N=C1\S/C(=C\c2cn(CC(=O)Nc3cccc(C)c3)c3ccccc23)C(=O)N1CC	5.8
COc1ccccc1[C@H]1CC(=O)C2=C(C1)NC(C)=C(C(=O)OC1CCCC1)[C@H]2c1ccc(OC(C)=O)cc1	5.81
C[C@H]1CN(C(=O)c2cc(-c3ccc4c(c3)OCO4)nc3ccccc23)C[C@H](C)O1	4.19

Fill in the blank: the reported logD of CC1=C(C(=O)OCCc2ccccc2)[C@@H](c2ccc3c(c2)OCO3)C2=C(C[C@H](c3cccs3)CC2=O)N1 is ____.
5.44

What do we get for Clc1cccc(Cl)c1Cn1ccc(Nc2nnc(Cc3ccc(-n4cnnn4)cc3)s2)n1 ?
4.99

What do we get for CCn1c(SCC(=O)NC(C)(C)C)nnc1C1CCCCC1 ?
3.2

What do we get for CCOC(=O)C1=C(C)NC2=C(C(=O)C[C@H](c3ccc(OC)c(OC)c3)C2)[C@H]1c1ccccc1OC ?
3.79

What do we get for CCOCCOC(=O)[C@H](C)n1cnc2sc3c(c2c1=O)CC[C@H](C)C3 ?
4.25

What do we get for CSc1ccc([C@@H]2[C@@H]3C(=O)N(c4cccc(C(F)(F)F)c4)C(=O)[C@H]3ON2c2ccccc2)cc1 ?
5.98

What do we get for COc1ccc([C@@H]2C(C(=O)OCCOC(C)C)=C(C)NC3=C2C(=O)C[C@H](c2cccs2)C3)cc1OC ?
4.45

* * *

logD values for the compounds below.
- runDescription: method code SF, from DOI: 10.1016/j.ejps.2012.10.019, PMID: 23131797
- cond: pH 5.0

# annotated cases, reported logD shown
compoundStructureString	logD
COc1ccc(S(=O)(=O)N(CC(=O)Nc2cccc([N+](=O)[O-])c2)C2CCCCC2)cc1Cl	5.48
O=C1CCCC2=C1C(c1ccc(OCc3ccccc3F)cc1)C1=C(CCCC1=O)O2	4.92
CCOC(=O)C1=C(Nc2ccc(OC(=O)Nc3ccc(OC(F)(F)F)cc3)cc2)C(=O)N(C(C)(C)C)C1	6.72

Fill in the blank: the reported logD of CCCc1ccc(OCc2ccc(C(=O)Nc3ccccc3C(=O)OC)o2)c(OC)c1 is ____.
5.89

What do we get for Cn1ncc(Cl)c1-c1nc(-c2nonc2N)no1 ?
2.77

What do we get for CCOc1cc(C#N)c(NC(=O)c2cc(S(=O)(=O)N3CCOCC3)c(Cl)cc2Cl)cc1OCC ?
4.31

What do we get for COc1ccc(NC(=O)c2cc(NC(=O)c3ccccc3)cc(C(=O)Nc3ccc(OC)cc3)c2)cc1 ?
5.59

What do we get for COc1c(Cl)ccc(Cl)c1C(=O)Nc1ccc(C)cc1C ?
4

What do we get for CCCCCC(=O)NC1(CCC)CCCC1 ?
4.28

What do we get for CCc1cc(=O)oc2c(C)c(OCC(=O)OC(C)(C)C)ccc12 ?
4.52

What do we get for O=C(Cn1cc(C(=O)C(F)(F)F)c2cc(Br)ccc21)N1CCCCCC1 ?
4.62

What do we get for CC1=CC(C(F)(F)F)(C(F)(F)F)C(C#N)=C(N)N1c1ccc(C(N)=O)cc1 ?
4.41

What do we get for COC(=O)c1cccc(NC(=O)CCN2C(=O)c3ccccc3C2=O)c1 ?
3.39

What do we get for CCn1cc(CN(C)C(=O)c2cc3cc(Br)ccc3oc2=O)c(C)n1 ?
3.27

* * *

- runDescription: method code SF, from DOI: 10.1016/j.ejps.2012.10.019, PMID: 23131797
- cond: pH 2.0
logD values for the compounds below.
Output spec: single numeric token, no unit.

# annotated cases, reported logD shown
compoundStructureString	logD
O=C(/C=C/c1ccc2c(c1)OCO2)Nc1ccc2c(c1)OCO2	3.72
COc1cccc(-n2c(SCc3cc(=O)n4ccsc4n3)nc3ccccc3c2=O)c1	3.56
CCN(C(=O)C(=O)c1cn(CC(=O)N2CCOCC2)c2ccccc12)c1ccccc1	2.05
CC(C)=CC(=O)OCC(=O)Nc1ccc(S(=O)(=O)N(C)C)cc1	2.26
Cc1ccc(OCCC(=O)N2CCN(S(=O)(=O)c3cccs3)CC2)cc1	2.98
Cc1cccc(C)c1NC(=O)Cn1cc(C(=O)C2CC2)c2ccccc21	3.47
CC(=O)c1sc(SCCOc2ccccc2)nc1C	3.86

We now examine a further compound.
Fill in the blank: the reported logD of Cc1cccc(C)c1NC(=O)CNC(=O)C1CCN(S(=O)(=O)c2cccc(Cl)c2Cl)CC1 is ____.
3.41

* * *

- runDescription: method code SF, from DOI: 10.1016/j.ejps.2012.10.019, PMID: 23131797
- cond: pH 7.3
resultType: logD
Output spec: single numeric token, no unit.

# annotated cases, reported logD shown
compound	logD
COc1cccc(Cn2cc(N)cn2)c1	1.55
COc1cccc(OC)c1C(=O)Nc1ccc(N2CCN(C(=O)c3ccccc3C)CC2)cc1	4.16

Fill in the blank: the reported logD of CC(C)CCn1c(NCCO)nc2c1c(=O)n(C)c(=O)n2C is ____.
2.93

What do we get for NC(=O)CSc1nc2c(c(=O)n1Cc1ccco1)C1(CCCCC1)Cc1ccccc1-2 ?
5.45

What do we get for O=C(c1nn(-c2ccccc2)c(=O)c2ccccc12)N1CCOCC1 ?
2.47

What do we get for O=C(c1cccnc1)N1CCN(S(=O)(=O)c2ccccc2)CC1 ?
2.3

What do we get for O=C(CSc1nnc(-c2ccccc2F)n1CCc1ccccc1)N1CCOCC1 ?
3.79

What do we get for C=CCn1c(SCC(=O)Nc2ccc(C)c(F)c2)nnc1-c1cccs1 ?
4.48

What do we get for CC(Sc1nnc(-c2ccc(F)cc2)n1-c1ccccc1)C(N)=O (stereo not drawn) ?
3.38

What do we get for Cc1cc(Br)ccc1NC(=O)CSc1nnc(N)s1 ?
2.69

What do we get for CC1CCCC(C)N1C(=O)CSc1nnc(-c2ccco2)n1Cc1ccccc1 (stereo not drawn) ?
4.49

What do we get for O=C(CSc1ncnc2sc3c(c12)CCC3)Nc1ccc(F)cc1 ?
4.69

What do we get for CCN1C(=O)c2cccc3c(S(=O)(=O)N(C(=O)c4cccnc4)c4ccc(OC)cc4)ccc1c23 ?
4.74

What do we get for CC(C)N(C(=O)CSc1nnc(NCc2ccccc2)s1)C(C)C ?
4.09

What do we get for CCn1c(SCC(=O)Nc2ccc(C(=O)OC)cc2)nnc1-c1ccccc1 ?
4.24

What do we get for O=C(Nc1cccc(-c2cnc3ccccc3n2)c1)c1cccs1 ?
4.34

What do we get for Cc1ccnc(N(C(=O)c2cc3c(s2)CCCC3)C(=O)c2cc3c(s2)CCCC3)c1 ?
5.76

What do we get for Cn1c(C(=O)N2CCC3(CC2)OCCO3)cc2c(=O)n3ccccc3nc21 ?
2.87

* * *

- runDescription: method code SF, from DOI: 10.1016/j.ejps.2012.10.019, PMID: 23131797
- cond: pH 5.0
One threshold, 4, splits the recorded logD values: lower ones are class 1, equal or higher ones are class 0.

Example cases with answers are listed next.
molecule	labelClass
CSc1sc(C(=O)N2CCOCC2)c2c1S(=O)(=O)N(C)c1ccccc1-2	class 1
CC1=CC(C)C(CO)(CO)C(C)C1 (stereo unspecified)	class 1
O=P(OCC(F)(F)F)(OCC(F)(F)F)N1CCOCC1	class 1
COc1ccc(C(C)=O)cc1COC(=O)c1cc(Cl)ccc1Cl	class 0
COC(=O)CN(c1ccccc1)S(=O)(=O)c1ccc(OC)cc1	class 1

Take the molecule COc1cc2c(cc1OC)CN(C(=O)c1cccc(S(=O)(=O)N3CCCCC3)c1)CC2 and say whether its logD is less than 4.
class 0

What do we get for N#Cc1nc2c(S(=O)(=O)c3ccccc3)c(N)n(Cc3ccc(F)cc3)c2nc1C#N ?
class 0

What do we get for Cc1ccccc1-c1noc(CCl)n1 ?
class 1

What do we get for O=C(COC(=O)c1cccc(S(=O)(=O)N2CCc3ccccc32)c1)Nc1ccc(F)c(F)c1F ?
class 0

What do we get for CC(=O)NCCc1ccc(S(=O)(=O)N2CCOCC2)cc1 ?
class 1

What do we get for Cc1cc(C(=O)COC(=O)c2oc3ccccc3c2COC(C)C)c(C)n1-c1c(C)n(C)n(-c2ccccc2)c1=O ?
class 0

What do we get for O=C(CSc1nnc(-c2cccs2)o1)NCCN1C(=O)CSC1=O ?
class 1

What do we get for COc1nc(Cl)nc(Nc2ccccc2)n1 ?
class 1

What do we get for COc1ccc(OC)c(NC(=O)c2ccc(NC3=C(Cl)C(=O)N(C4CCCCC4)C3=O)cc2)c1 ?
class 0

What do we get for NC(=O)c1cc(NC(=O)c2cc(C(F)(F)F)cc(C(F)(F)F)c2)cc(C(N)=O)c1 ?
class 1

What do we get for O=C(NCCc1ccccc1)c1ccc(Cl)cc1 ?
class 1

What do we get for Cc1cccc(C)c1NC(=O)CSc1nnnn1-c1ccc(OC(F)(F)F)cc1 ?
class 0

What do we get for CC(C)OCCCNC(=O)C(=O)NCc1ccc(C(C)C)cc1 ?
class 0

What do we get for COc1ccc(N2C(=O)Cc3ccccc3C2=O)cc1 ?
class 1

What do we get for CCCC(=O)OCC(=O)Nc1ccc(F)cc1Cl ?
class 1

What do we get for C#CCOc1c(I)cc(C=C2C(=O)N(C)C(=S)N(C)C2=O)cc1OCC ?
class 1

What do we get for CC(Sc1nc2ccccc2c(=O)n1-c1ccc(F)cc1)C(=O)NCc1ccc2c(c1)OCO2 (stereo unspecified) ?
class 0

What do we get for Cc1sc2nc(SCC(=O)N3CCCC3)n(C3CCCCC3)c(=O)c2c1C ?
class 0
